measurement description: Human HepG2 cell viability assay in 384 well format
Type: toxicity, cell-based
Set-up: dose 125 nL, time 70.5 hour; concentration not given beside the values
condition parameters: HepG2 cells, read-out: Inhibition
Reported values of cytotoxicity at 70.5 h for individual entries
The reply should be a number in %, with the unit left off.

See these solved cases before continuing.
Cc1cccc2nc(CN3CCCC(Cn4ccnn4)C3)cc(=O)n12 (stereo unspecified)    2.5
Cc1ccc(N2CCCC(NCc3c(C)noc3C)C2)nn1 (stereo unspecified)    -8.52

Prompt line: What value of measured cytotoxicity at 70.5 h is listed for "Cc1nc(C)c(C(=O)N2CCN(CCOc3ccccc3C)CC2)o1" ?
Response line: -8.43

Prompt line: Moving on to CC(C)(C)CN1CC(O)CN(C(=O)c2cccc(C(F)(F)F)c2)CC1=O (stereo unspecified)
Response line: -7.28

Prompt line: Entry "Cn1cnnc1CNC(=O)Nc1cc(C(F)(F)F)c[nH]c1=O" please
Response line: -7.22

Prompt line: Similarly, "N#Cc1cccnc1OC1CCN(S(=O)(=O)c2ccc(F)c(Cl)c2)CC1" ?
Response line: -14.2
